Would you mind telling me the reported pest or weed control at 500 g/ha of each entry?
Tested on: sicklepod (Cassia obtusifolia, CASOB)
Experiment: Pre-emerge greenhouse herbicide test, phytotoxicity rating
Format: in vivo
Conditions: Senna obtusifolia, pre-emergence, 336 h, Rate 500 g al/ha, 14 days after application, rating scale 0-100
One number for each entry, in %.

Sample answers from the record:
Nn1c(C(F)(F)F)cc(=O)n(-c2cc(Oc3ncccc3C(F)(F)F)c(Cl)cc2F)c1=O ... 100
Nn1c(C(F)(F)F)cc(=O)n(-c2cc(Oc3nc(F)c(F)cc3F)c(Cl)cc2F)c1=O ... 100
N#Cc1cccnc1Oc1cc(-n2c(=O)cc(C(F)(F)F)n(N)c2=O)c(F)cc1Cl ... 100
Nn1c(C(F)(F)F)cc(=O)n(-c2cc(Oc3ccccc3C(F)(F)F)c(Cl)cc2F)c1=O ... 0
Nn1c(C(F)(F)F)cc(=O)n(-c2cc(Oc3ncccn3)c(Cl)cc2F)c1=O ... 100
Nn1c(C(F)(F)F)cc(=O)n(-c2cc(Oc3cccc(Cl)n3)c(Cl)cc2F)c1=O ... 50

Below are some compounds; for each one, tell me its pest or weed control at 500 g/ha.
1. Nn1c(C(F)(F)F)cc(=O)n(-c2cc(Oc3ccccn3)c(Cl)cc2F)c1=O
2. Nn1c(C(F)(F)F)cc(=O)n(-c2cc(Oc3ccccc3[N+](=O)[O-])c(Cl)cc2F)c1=O

// result
100
90
